meta.source: the supplement of paper PMC9112550

# Tested on: Escherichia coli TOP10
# assay details: shrunken log2 fold change of peptide-encoding DNA abundance (4.5 h post-induction vs induction); higher = less antimicrobial activity (less host growth inhibition)
# condition details: time post-induction: 4.5 h; library: site-saturation at positions 5, 18, 19, 20
Threshold rule: shrunken log2 fold change greater than or equal to -0.07 is satisfied; below that, not satisfied.

Could you verify whether the entry `RRIRFRPPRLPRPRPRPNQIPRP` shows shrunken log2 fold change of no less than -0.07?
not satisfied

Now consider `RRIRQRPPRLPRPRPRPNQVPRP` .
not satisfied

Now consider `RRIRWRPPRLPRPRPRPMKGPRP` .
not satisfied

Now consider `RRIRSRPPRLPRPRPRPPHPPRP` .
satisfied

Now consider `RRIRTRPPRLPRPRPRPQCGPRP` .
satisfied

Now consider `RRIRMRPPRLPRPRPRPNTPPRP` .
satisfied

Now consider `RRIRLRPPRLPRPRPRPSSTPRP` .
not satisfied

Now consider `RRIRTRPPRLPRPRPRPSFTPRP` .
not satisfied

Now consider `RRIRARPPRLPRPRPRPVKEPRP` .
satisfied

Now consider `RRIRRRPPRLPRPRPRPHRMPRP` .
not satisfied

Now consider `RRIRCRPPRLPRPRPRPLFGPRP` .
satisfied

* * *

# Test system: Escherichia coli TOP10
# assay details: shrunken log2 fold change of peptide-encoding DNA abundance (4.5 h post-induction vs induction); higher = less antimicrobial activity (less host growth inhibition)
# condition details: time post-induction: 4.5 h; library: site-saturation at positions 5, 18, 19, 20
readout kind: shrunken log2 fold change

residues=RRIRFRPPRLPRPRPRPIKGPRP readout_kind="shrunken log2 fold change" measured_result=-0.248
residues=RRIRDRPPRLPRPRPRPKTCPRP readout_kind="shrunken log2 fold change" measured_result=0.00179

Please report the recorded shrunken log2 fold change for `RRIRVRPPRLPRPRPRPMYCPRP` .
-0.233

* * *

# Test system: Escherichia coli TOP10
# assay details: shrunken log2 fold change of peptide-encoding DNA abundance (4.5 h post-induction vs induction); higher = less antimicrobial activity (less host growth inhibition)
# condition details: time post-induction: 4.5 h; library: site-saturation at positions 5, 18, 19, 20
Entries and their shrunken log2 fold change values follow.
Answer with a bare number; do not write a unit.

// solved cases for shrunken log2 fold change follow
residues=RRIRGRPPRLPRPRPRPVLRPRP readout_kind="shrunken log2 fold change" measured_result=0.656
residues=RRIRYRPPRLPRPRPRPAKFPRP readout_kind="shrunken log2 fold change" measured_result=-0.331
residues=RRIRVRPPRLPRPRPRPRYEPRP readout_kind="shrunken log2 fold change" measured_result=-0.273
residues=RRIRSRPPRLPRPRPRPGAMPRP readout_kind="shrunken log2 fold change" measured_result=0.724

Write down the reported shrunken log2 fold change of `RRIRRRPPRLPRPRPRPTFGPRP` , test system: Escherichia coli TOP10.
0.337

Now consider `RRIRCRPPRLPRPRPRPSDNPRP` .
-0.66

* * *

Entries and their shrunken log2 fold change values follow.
# Test system: Escherichia coli TOP10
# assay details: shrunken log2 fold change of peptide-encoding DNA abundance (4.5 h post-induction vs induction); higher = less antimicrobial activity (less host growth inhibition)
# condition details: time post-induction: 4.5 h; library: site-saturation at positions 5, 18, 19, 20
Answer with a bare number; do not write a unit.

residues=RRIRCRPPRLPRPRPRPFSIPRP measured_result=-0.261

Write down the reported shrunken log2 fold change of `RRIRKRPPRLPRPRPRPPEDPRP` , test system: Escherichia coli TOP10.
3.39

* * *

# Tested on: Escherichia coli TOP10
# assay details: shrunken log2 fold change of peptide-encoding DNA abundance (4.5 h post-induction vs induction); higher = less antimicrobial activity (less host growth inhibition)
# condition details: time post-induction: 4.5 h; library: site-saturation at positions 5, 18, 19, 20
Threshold rule: shrunken log2 fold change greater than or equal to -0.07 is met; below that, not met.

Could you verify whether the entry `RRIRCRPPRLPRPRPRPHWIPRP` shows shrunken log2 fold change of no less than -0.07?
not met

Now consider `RRIRMRPPRLPRPRPRPQRYPRP` .
met

* * *

# System: Escherichia coli TOP10
# assay details: shrunken log2 fold change of peptide-encoding DNA abundance (4.5 h post-induction vs induction); higher = less antimicrobial activity (less host growth inhibition)
# condition details: time post-induction: 4.5 h; library: site-saturation at positions 5, 18, 19, 20
Entries and their shrunken log2 fold change values follow.

// solved cases for shrunken log2 fold change follow
residues=RRIRPRPPRLPRPRPRPKDWPRP measured_result=0.342
residues=RRIRARPPRLPRPRPRPNNVPRP measured_result=-0.0632
residues=RRIRCRPPRLPRPRPRPIGNPRP measured_result=-0.221
residues=RRIRYRPPRLPRPRPRPCFIPRP measured_result=-0.321
residues=RRIRPRPPRLPRPRPRPKKAPRP measured_result=0.129

Please report the recorded shrunken log2 fold change for `RRIRRRPPRLPRPRPRPHCKPRP` .
0.298

Now consider `RRIRIRPPRLPRPRPRPVRPPRP` .
0.664

Now consider `RRIRTRPPRLPRPRPRPLRQPRP` .
0.456

Now consider `RRIRPRPPRLPRPRPRPSERPRP` .
-0.0297

Now consider `RRIRRRPPRLPRPRPRPGNGPRP` .
0.372

Now consider `RRIRNRPPRLPRPRPRPPAKPRP` .
0.521

Now consider `RRIRNRPPRLPRPRPRPSDAPRP` .
0.0594

Now consider `RRIRNRPPRLPRPRPRPTMYPRP` .
-0.486

Now consider `RRIRWRPPRLPRPRPRPYFFPRP` .
-0.245

Now consider `RRIRIRPPRLPRPRPRPILQPRP` .
-0.146

Now consider `RRIRVRPPRLPRPRPRPGRLPRP` .
-0.0194

Now consider `RRIRCRPPRLPRPRPRPYTGPRP` .
-0.554

Now consider `RRIRIRPPRLPRPRPRPTHEPRP` .
-0.0459

* * *

# System: Escherichia coli TOP10
# assay details: shrunken log2 fold change of peptide-encoding DNA abundance (4.5 h post-induction vs induction); higher = less antimicrobial activity (less host growth inhibition)
# condition details: time post-induction: 4.5 h; library: site-saturation at positions 5, 18, 19, 20
Threshold rule: shrunken log2 fold change greater than or equal to -0.007 is True; below that, False.

residues=RRIRVRPPRLPRPRPRPWNWPRP assigned_label=False
residues=RRIRQRPPRLPRPRPRPDQPPRP assigned_label=False
residues=RRIRSRPPRLPRPRPRPMAFPRP assigned_label=False
residues=RRIRSRPPRLPRPRPRPWLWPRP assigned_label=True
residues=RRIRHRPPRLPRPRPRPPLKPRP assigned_label=False

Could you verify whether the entry `RRIRFRPPRLPRPRPRPQHVPRP` shows shrunken log2 fold change of no less than -0.007?
False

Now consider `RRIRDRPPRLPRPRPRPDHCPRP` .
True

* * *

# System: Escherichia coli TOP10
# assay details: shrunken log2 fold change of peptide-encoding DNA abundance (4.5 h post-induction vs induction); higher = less antimicrobial activity (less host growth inhibition)
# condition details: time post-induction: 4.5 h; library: site-saturation at positions 5, 18, 19, 20
Class field: derived from shrunken log2 fold change; ranges Low: < -0.1; Mid: ≥ -0.1 and < 0.04; High: ≥ 0.04

residues=RRIRSRPPRLPRPRPRPYTSPRP assigned_label=Low
residues=RRIRNRPPRLPRPRPRPCWFPRP assigned_label=Mid
residues=RRIRNRPPRLPRPRPRPGPPPRP assigned_label=High

Which bin, given its shrunken log2 fold change, does `RRIRLRPPRLPRPRPRPSDVPRP` occupy?
Low

Now consider `RRIRHRPPRLPRPRPRPIDLPRP` .
Mid

* * *

# Test system: Escherichia coli TOP10
# assay details: shrunken log2 fold change of peptide-encoding DNA abundance (4.5 h post-induction vs induction); higher = less antimicrobial activity (less host growth inhibition)
# condition details: time post-induction: 4.5 h; library: site-saturation at positions 5, 18, 19, 20
Class field: derived from shrunken log2 fold change; ranges bottom range (below -0.1), center range (-0.1 to below 0.06), top range (0.06 or more)

Please review the following examples before continuing.
residues=RRIRVRPPRLPRPRPRPVHQPRP assigned_label="top range"
residues=RRIRPRPPRLPRPRPRPACNPRP assigned_label="center range"
residues=RRIRGRPPRLPRPRPRPLYDPRP assigned_label="top range"
residues=RRIRWRPPRLPRPRPRPTMYPRP assigned_label="center range"

Which bin, given its shrunken log2 fold change, does `RRIRYRPPRLPRPRPRPRWLPRP` occupy?
bottom range

* * *

# System: Escherichia coli TOP10;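 note: peptides expressed intracellularly from a pBAD plasmid library in pooled LB shake-flask culture, induced with 0.3% L-arabinose, DNA abundance read by NGS, three biological replicates, DESeq2 with apeglm shrinkage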
# assay details: shrunken log2 fold change of peptide-encoding DNA abundance (4.5 h post-induction vs induction); higher = less antimicrobial activity (less host growth inhibition)
# condition details: time post-induction: 4.5 h; library: site-saturation at positions 5, 18, 19, 20
Entries and their shrunken log2 fold change values follow.
Answer with a bare number; do not write a unit.

// solved cases for shrunken log2 fold change follow
residues=RRIRNRPPRLPRPRPRPMVCPRP system_tested="Escherichia coli TOP10" readout_kind="shrunken log2 fold change" measured_result=-0.018
residues=RRIRMRPPRLPRPRPRPLNWPRP system_tested="Escherichia coli TOP10" readout_kind="shrunken log2 fold change" measured_result=0.225
residues=RRIRARPPRLPRPRPRPNKSPRP system_tested="Escherichia coli TOP10" readout_kind="shrunken log2 fold change" measured_result=-0.174
residues=RRIRRRPPRLPRPRPRPPLNPRP system_tested="Escherichia coli TOP10" readout_kind="shrunken log2 fold change" measured_result=0.696

Please report the recorded shrunken log2 fold change for `RRIRDRPPRLPRPRPRPYFTPRP` .
-0.573
